Assignment: determine reported growth for the given compounds.
- Tested on: HOP-92 NSCLC
- test_description: NCI-60 one-dose screen, 48 h (100 = growth as untreated, 0 = no growth, -100 = all killed)
- run_conditions: 10 µM unless noted
The panel holds about 83,000 compounds, 20% with a hit somewhere; the sample as a whole holds those more often.
Give bare numbers, in %.

// below: answered compounds
| compound | target_under_test | measurement_name | unit_symbol | observed |
| --- | --- | --- | --- | --- |
| COc1ccc2c(c1)N(CCO)C1=C(C(=O)OC1)C2c1cccc(Br)c1 (stereo unspecified) | HOP-92 NSCLC | growth | % | 42.7 |
| O=c1c2sc3ccccc3c2nnn1-c1ccc(F)c(Cl)c1 | HOP-92 NSCLC | growth | % | -1.07 |
| CCCN(CCC)CC(O)COc1ccccc1C(=O)Nc1ccccc1 (stereo unspecified) | HOP-92 NSCLC | growth | % | 84.2 |

Parameter requested: growth. Apply to each item below.
1. CC1C2CCC(C2)C1COCCOCCO (stereo unspecified)
2. COc1ccc(-c2nnc(SCC(=O)Nc3ccc(C(=O)/C=C/c4ccc(Cl)cc4)cc3)n2-c2ccccc2)cc1
3. SCc1ccc(CS)cc1

**A:**
[105, 105, 77.2]

* * *

- Test system: HCT-116 colon
- test_description: NCI-60 one-dose screen, 48 h (100 = growth as untreated, 0 = no growth, -100 = all killed)
- run_conditions: 10 µM unless noted
About 83,000 compounds went through this panel and 20% of them were active in at least one assay; those are over-represented in the sample as a whole. Active and inactive are the calls of the source. The calls were made as follows: active = growth percent below 10; inactive = the rest.
Please go through the items and note down their growth.

Some solved cases for reference:
| compound | growth |
| --- | --- |
| COc1ccc(-c2cnc3ccnn3c2-c2cc(OC)c(OC)c(OC)c2)cc1 | 27.5% (inactive) |
| CNCc1ccccc1CN(CC(=O)Nc1ccc2c(c1)CC1(C2)C(=O)Nc2ncccc21)C(=O)C(C)(C)C (stereo not given) | 105% (inactive) |
| O=C1Cc2c([nH]c3ccc([N+](=O)[O-])cc23)-c2ccccc2N1 | 4.3% (active) |

Dear colleague, could you send me growth for each of the items below? Thanks.
1. Fc1ccc2c(CN3CCO[C@H](COc4cccc(Cl)c4)C3)c[nH]c2c1
2. CCN(CC)CCCCCCCNc1cc(OC)cc2c(C)ccnc12

**A:**
1: 28.8% (inactive); 2: 70.9% (inactive)

* * *

- Test system: A549/ATCC NSCLC
- test_description: NCI-60 one-dose screen, 48 h
- run_conditions: 10 µM unless noted
This is part of a sample that, as a whole, favours compounds with a hit. Of some 83,000 tested, about 20% had one in any assay. The source made the active and inactive calls. How the source made its calls: active means growth percent below 10; inactive means the rest.
Could you please pick one outcome from this set? active, inactive

These solved cases illustrate the format of a correct answer.
| molecule | class_label |
| --- | --- |
| COC1=CC(c2ccc[nH]2)=N/C1=C\c1[nH]c(C)c(C(=O)CCCCCCCCC(=O)O[C@H]2CC[C@H]3C4CCc5cc(O)ccc5C4CC[C@]23C)c1C (some centres not stated) | active |
| COc1ccc(-c2nnc(SCC(=O)Nc3ccc(C(=O)/C=C/c4ccc(Cl)cc4)cc3)n2-c2ccccc2)cc1 | inactive |
| Oc1ccc(-c2cnc(-c3ccccc3)[nH]2)c(O)c1 | inactive |

**Q:** Any idea what this test logged for Nc1c(C(=O)Nc2cccc(Cl)c2)sc2ncc(Br)cc12 ?
**A:** inactive

**Q:** Please do the same for c1ccc2c(c1)cnc1ccccc12 as well.
**A:** inactive

**Q:** Repeat for the following molecule: O=C(NCC(c1ccsc1)N1CCCCCC1)c1ccc(C(F)(F)F)cc1 (configuration not stated)
**A:** inactive

**Q:** Then C/C(=C\C(=N\N=C(N)N)c1ccc(Cl)cc1)c1ccc(Cl)cc1 ?
**A:** active

**Q:** Try the molecule Cc1cc(-c2nnc(/C=C/c3ccc4c(c3)OCO4)o2)n[nH]1
**A:** inactive

**Q:** Can you handle O=C(Nc1cnc(C(F)(F)F)cn1)c1cc(Cl)ccc1O next?
**A:** active

**Q:** Record: Cn1nc(C(F)(F)F)cc1-c1c[nH]c(OCc2ccc(Cl)cc2)c(-c2ccc(Cl)c(C(F)(F)F)c2)c1=O
**A:** inactive

**Q:** Subsequent entry: CSC(=S)N/N=C(\C)c1ccccn1
**A:** inactive

**Q:** And for Cc1nn(-c2ccc(Cl)cc2)c(=O)n1CCN1CCOCC1 ?
**A:** inactive
